Would you kindly list plant injury rating, Wibw for each of these compounds?
- System: Wibw
- Assay Comment: plant injury after spraying emerged plants (Table D)
- Format: in vivo
- Design: scale not given here
- Measurement Conditions: 1.1210 kg/ha
Numbers only.

As a guide, the following entries are already answered.
COC(=O)c1c(OC)nc(C(F)(F)Cl)c(C(=O)OC)c1CC(C)C [Compound 30]	1
COC(=O)c1c(O)nc(C(F)(F)F)c(C(=O)OC)c1CC(C)C [Compound 1]	2
COC(=O)c1c(OC)nc(C(F)(F)F)c(C(=O)n2cccn2)c1CC1CC1 [Compound 116]	2

Provide each entry's plant injury rating, Wibw from the list below.
1. COC(=O)c1c(OC)nc(C(F)(F)F)c(C(=O)SC)c1C1CCC1 [Compound 137]
2. COC(=O)c1c(OC)nc(C(F)(F)F)c(C2=NCCCS2)c1CC(C)C [Compound 98]
3. COC(=O)c1c(OC)nc(C(F)(F)F)c(C2SCCS2)c1CC(C)C [Compound 93]
4. COC(=O)c1c(OC)nc(C(F)(F)F)c(C(=O)NCCCBr)c1CC(C)C [Compound 97]

Reply |
3
1
0
0

Ask | Provide measured plant injury rating, Wibw value, entry: COC(=O)c1c(OC)nc(C(F)(F)F)c(C(=O)Cl)c1CC1CC1 [Compound 113]
Reply | 0

###

- Test system: Rice
- Assay Comment: plant injury after spraying emerged plants (Table D)
- Format: in vivo
- Parameters: scale not given here
- Measurement Conditions: 1.1210 kg/ha
- Excerpt: Topsoil (silt loam) is sieved through a screen having 1.27 cm openings. […] This mixture is steam sterilized and then placed in aluminum pans 6.985 cm deep having ten holes in the bottom each 0.635 cm in diameter. The soil mixture is compacted to a depth of 1.27 cm. from the top of the pan. […]
Would you mind telling me the reported plant injury rating, Rice of each entry?
Give bare numbers.

Past entries and their recorded results:
COC(=O)c1c(OC)nc(C(F)(F)F)c(C(=O)n2ccc(F)n2)c1C1CCC1	0
COC(=O)c1c(OC)nc(C(F)(F)F)c(C2=NCCCS2)c1CC(C)C	0
COC(=O)c1c(OC)nc(C(F)(F)F)c(C(=O)n2cccn2)c1CC1CC1	0
COC(=O)c1c(OC)nc(C(F)(F)F)c(C(=O)SC)c1C1CCC1	1
COC(=O)c1c(OC)nc(C(F)(F)Cl)c(C(=O)OC)c1CC(C)C	0
COC(=O)c1c(OC)nc(C(F)(F)F)c(C2=NCCS2)c1CC(C)C	1
COC(=O)c1c(OC)nc(C(F)(F)F)c(N=CSC)c1CC(C)C	0
COC(=O)c1c(OC)nc(C(F)(F)F)c(C(=O)NCCCBr)c1CC(C)C	0

For every item below, please supply its plant injury rating, Rice.
1. COC(=O)c1c(OC)nc(C(F)(F)F)c(C(=O)Cl)c1CC1CC1
2. COC(=O)c1c(OC)nc(C(F)(F)F)c(C2SCCS2)c1CC(C)C
3. COC(=O)c1c(O)nc(C(F)(F)F)c(C(=O)OC)c1CC(C)C

Reply |
1. 0
2. 0
3. 0

###

- System: Wibw
- Assay Comment: plant injury after spraying emerged plants (Table D)
- Assay type: in vivo
- Set-up: scale not given here
- Measurement Conditions: 0.0701 kg/ha
Measure: plant injury rating, Wibw
Answers are plain numbers.

Example results:
COC(=O)c1c(OC)nc(C(F)(F)F)c(C(=O)n2cccn2)c1CC1CC1 [Compound 116]	1
COC(=O)c1c(OC)nc(C(F)(F)F)c(C2SCCS2)c1CC(C)C [Compound 93]	0

Need plant injury rating, Wibw for each of these molecules.
1. COC(=O)c1c(OC)nc(C(F)(F)F)c(C(=O)NCCCBr)c1CC(C)C [Compound 97]
2. COC(=O)c1c(OC)nc(C(F)(F)F)c(C2=NCCS2)c1CC(C)C [Compound 50]
3. COC(=O)c1c(OC)nc(C(F)(F)F)c(C2=NCCCS2)c1CC(C)C [Compound 98]
4. COC(=O)c1c(O)nc(C(F)(F)F)c(C(=O)OC)c1CC(C)C [Compound 1]
5. COC(=O)c1c(OC)nc(C(F)(F)F)c(-c2nnc(C)o2)c1CC(C)C [Compound 103]

Reply |
[0, 1, 0, 0, 0]
